System: Influenza A virus
Assay: Antiviral activity against Oseltamivir-resistant Influenza A virus
Type: functional, organism-based
assay.readout: EC50 (nM)
The response must be a number in nM with no trailing unit.

# query: EC50 of entry `Cc1cc(=O)oc2c1ccc1oc(C(=O)c3ccccc3)c(-c3ccccc3)c12`
21

Values from ChEMBL document CHEMBL5257032
